target: SARS-CoV-2 PLpro-NAB (Severe acute respiratory syndrome coronavirus 2); experiment: biochemical; conditions: read-out: HP PLpro-NAB SARS-CoV-2 inhibition [%] 20 µM triplicates L-CYS BUFFER
Counter-ions that a name gives are not always drawn.
Exercise: for every item that follows, state its recorded inhibition at 20 µM.
Numeric only. Scale: %

[in] Quote inhibition at 20 µM reported for Cc1c(S(=O)(=O)O)oc2c1C(=O)C(=O)c1c-2ccc2c1CCCC2(C)C [Sodium-Tanshinone-ii-A-Sulfonate] please.
[out] -51.9

[in] Quote inhibition at 20 µM reported for CC(C)Nc1cccnc1N1CCN(C(=O)c2cc3cc(NS(C)(=O)=O)ccc3[nH]2)CC1 [Delavirdine (mesylate), Delavirdine] please.
[out] -69.3

[in] Quote inhibition at 20 µM reported for CC1=CC(=O)c2ccccc2C1=O please.
[out] -45.7

[in] Quote inhibition at 20 µM reported for O=c1ccc2[n+]([O-])c3ccc(O)cc3oc-2c1 [Resazurin (sodium salt), Resazurin] please.
[out] -36.5
